Collected IC50 values appear next to each entry.
target-or-system: human TRPA1 (Homo sapiens (Human))
experiment-notes: Inhibitory activity on human TRPA1 by conventional patch clamp assay
Format: cell-based
condition-notes: HEK293 human TRPA1, 100 μM cinnamaldehyde
Excerpt: 2. Inhibitory Activity on Human TRPA1 by Conventional Patch Clamp Assay In order to compare the influences of different measuring methods on the inhibitory activity of compounds, a conventional patch clamp method was used to further measure the inhibitory activity of compounds 1, 11, 31, 50, and 78 on TRPA1. The principle and procedures of the conventional patch clamp assay could be found in the literature report of Chen et al [Chen et al. Pain 2011, 152(5):1165-72]. […]
Unit nM implied. Number only.

Record excerpt, results attached:
CC(C)(C)C1CCN(C(=O)C2Cc3cc(C#N)ccc3N2)CC1 (centres unmarked)    83
N#Cc1ccc(NC2(C(=O)N3CCN(c4cccc(C(F)(F)F)n4)CC3)CCCC2)cc1    35
CC(C)(C)C1CCN(C(=O)C2(Nc3ccc(C#N)cc3)CCCC2)CC1    98

Asked: State measured IC50 of the compound N#Cc1ccc(NC2(C(=O)N3CCN(c4ccc(C(F)(F)F)cc4)CC3)CCCC2)cc1 with human TRPA1 (Homo sapiens (Human)).
Given back: 56

Asked: Write down measured IC50 (human TRPA1 (Homo sapiens (Human))) for this compound. N#Cc1ccc(OC2(C(=O)N3CCN(c4nccc(C(F)(F)F)n4)CC3)CCCC2)cc1
Given back: 65

###

target-or-system: UniProt O75762
experiment-notes: FLIPR assay of inhibitory activity on human TRPA1 (calcium ion flux fluorescence)
Format: cell-based
condition-notes: HEK293 cells stably expressing human TRPA1
Text: 1. FLIPR Assay of Inhibitory Activity on Human TRPA1 A calcium ion flux fluorescence method (FLIPR assay) was adopted to measure the inhibitory activity of compounds on human TRPA1 channel. […] The data was collected and analyzed using a FLIPR program. The fluorescence peak value was used to evaluate the inhibitory (or agonistic) activity of the compounds at each concentration. […]
property-label: IC50
Answer with the value and then the unit.

Solved entries (count: 10):
N#Cc1ccc(NC2(C(=O)N3CCN(c4ccc(C(F)(F)F)nn4)CC3)CCCC2)cc1    87 nM
N#Cc1ccc(OC2(C(=O)N3CCN(c4ccc(C(F)(F)F)nn4)CC3)CCCC2)cc1Cl    847 nM
N#Cc1ccc(NC2(C(=O)N3CCN(c4ccc(C(F)(F)F)cc4)CC3)CCCC2)cc1    40 nM
CC(C)(C)C1CCN(C(=O)C2(Nc3nc(C#N)cs3)CCCC2)CC1    1080 nM
N#Cc1ccc(OC2(C(=O)N3CCN(c4nccc(C(F)(F)F)n4)CC3)CCCC2)cc1    28 nM
N#Cc1ccc(NC2(C(=O)N3CC4CCC3CN4c3cccc(C(F)(F)F)n3)CCCC2)cc1 (stereo not shown)    26 nM
CCC(CC)(Nc1ccc(C#N)cc1)C(=O)N1CCN(c2cccc(C(F)(F)F)c2)CC1    568 nM
Cc1cccc(N2CCN(C(=O)C3(Nc4ccc(C#N)cc4)CCCC3)CC2)n1    23 nM
CC(C)(C)N1CCN(C(=O)C2(Oc3ccc(C(F)(F)F)cc3)CCCC2)CC1    552 nM
N#Cc1ccc(NC2(C(=O)N3CCN(c4cccc(C(F)(F)F)n4)CC3)CCCC2)cc1    19 nM

Asked: Answer briefly: IC50 recorded on UniProt O75762 for Cn1cc(NC2(C(=O)N3CCC(C(C)(C)C)CC3)CCCC2)nc1C#N
Given back: 4650 nM

Asked: Param request: IC50 | system UniProt O75762 | item N#Cc1ccc(OC2(C(=O)N3CCN(c4ccc(C(F)(F)F)cc4)CC3)CCCC2)cc1
Given back: 325 nM

Asked: Retrieve IC50 on UniProt O75762; query Cn1ccc2cc(SC3(C(=O)N4CCC(C(C)(C)C)CC4)CCCC3)ccc21
Given back: 3780 nM

Asked: Write IC50 of N#Cc1ccc(NC2(C(=O)N3CCN(c4ncc(C(F)(F)F)s4)CC3)CCCC2)cc1 ; system used: UniProt O75762
Given back: 876 nM

Asked: Fill in: IC50 on UniProt O75762, entry N#Cc1ccc2c(c1)CC(C(=O)N1CCN(c3cccc(C(F)(F)F)c3)CC1)N2 (stereo not shown)
Given back: 92 nM

Asked: Consider the compound N#Cc1ccc(NC2(C(=O)N3CCC4(CCCC4)CC3)CCCC2)cc1 tested on UniProt O75762; state its IC50.
Given back: 287 nM

Asked: Look up and report IC50, with UniProt O75762 as system, for Cc1cccc(N2CCN(C(=O)C3(Oc4ccc(C#N)cc4)CCCC3)CC2)c1
Given back: 65 nM

###

target-or-system: human TRPA1 (Homo sapiens (Human), UniProt O75762)
Sequence (O75762 whole entry): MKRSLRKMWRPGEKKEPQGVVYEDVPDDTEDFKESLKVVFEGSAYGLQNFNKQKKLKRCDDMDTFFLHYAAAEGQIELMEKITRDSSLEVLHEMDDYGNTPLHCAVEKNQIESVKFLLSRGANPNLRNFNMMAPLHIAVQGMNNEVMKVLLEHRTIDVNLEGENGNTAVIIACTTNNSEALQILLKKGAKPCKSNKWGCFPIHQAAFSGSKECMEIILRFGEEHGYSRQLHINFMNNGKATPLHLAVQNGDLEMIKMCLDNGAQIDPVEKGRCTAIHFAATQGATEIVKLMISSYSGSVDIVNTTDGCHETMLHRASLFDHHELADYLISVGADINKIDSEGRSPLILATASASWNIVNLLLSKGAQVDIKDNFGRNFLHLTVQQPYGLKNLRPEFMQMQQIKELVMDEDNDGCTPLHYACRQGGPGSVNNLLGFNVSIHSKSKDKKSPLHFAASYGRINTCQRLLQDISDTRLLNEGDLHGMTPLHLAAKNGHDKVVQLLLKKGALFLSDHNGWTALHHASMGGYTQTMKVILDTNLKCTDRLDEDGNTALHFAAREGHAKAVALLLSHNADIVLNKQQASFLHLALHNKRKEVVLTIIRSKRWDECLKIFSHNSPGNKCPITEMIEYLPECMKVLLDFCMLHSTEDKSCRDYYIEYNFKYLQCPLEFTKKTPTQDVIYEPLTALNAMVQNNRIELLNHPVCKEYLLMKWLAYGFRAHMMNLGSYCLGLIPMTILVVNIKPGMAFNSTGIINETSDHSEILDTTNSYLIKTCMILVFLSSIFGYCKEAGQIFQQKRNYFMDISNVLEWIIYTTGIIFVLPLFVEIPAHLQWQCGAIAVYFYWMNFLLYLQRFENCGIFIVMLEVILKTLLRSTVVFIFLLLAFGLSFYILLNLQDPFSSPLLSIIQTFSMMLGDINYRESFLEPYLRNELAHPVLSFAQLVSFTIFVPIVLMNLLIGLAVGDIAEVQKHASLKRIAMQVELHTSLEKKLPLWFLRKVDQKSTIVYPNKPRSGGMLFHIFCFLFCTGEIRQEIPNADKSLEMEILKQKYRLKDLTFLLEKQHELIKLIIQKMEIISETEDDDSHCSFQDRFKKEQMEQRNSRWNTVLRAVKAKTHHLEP
experiment-notes: FLIPR assay of inhibitory activity on human TRPA1 (calcium ion flux fluorescence)
Type: cell-based
condition-notes: HEK293 cells stably expressing human TRPA1
pIC50: −log10 of the molar value.
Classify as follows. Reported pIC50 greater than or equal to 7: MET. Reported pIC50 below: NOT MET.

CC(C)(C)C1CCN(C(=O)C2(Nc3ncc(C#N)s3)CCCC2)CC1    NOT MET

Could you now consider this next molecule?
Asked: Reported pIC50 at or above 7? N#Cc1ccc(NC2(C(=O)N3CCN(c4nccc(C(F)(F)F)n4)CC3)CCCC2)cc1
Given back: MET

###

target-or-system: UniProt O75762
experiment-notes: FLIPR assay of inhibitory activity on human TRPA1 (calcium ion flux fluorescence)
Assay type: cell-based
condition-notes: HEK293 cells stably expressing human TRPA1
Some compounds, each annotated with its measured IC50.
Return type: number; implicit unit nM.

Reference set, count: 5
CC(C)(C)C1CCN(C(=O)C2Cc3cc(C#N)ccc3N2)CC1 (centres unmarked) [Compound 78]    53
CC(C)(C)C1CCN(C(=O)C2(Nc3ccc(C#N)cc3)CCC2)CC1 [Compound 37]    5210
CC(C)(C)C1CCN(C(=O)C2(Nc3nc(C#N)co3)CCCC2)CC1 [Compound 41]    3070
CC(C)(C)C(Nc1ccc(C#N)cc1)C(=O)N1CCN(c2cccc(C(F)(F)F)n2)CC1 (centres unmarked) [Compound 14]    87
CC(C)(C)C1CCN(C(=O)C(Nc2ccc(C#N)cc2)C(C)(C)C)CC1 (centres unmarked) [Compound 43]    91

Now take the following compound into account.
Asked: Please report IC50 for the following compound: N#Cc1ccc2c(c1)CC(C(=O)N1CCN(c3cccc(C(F)(F)F)n3)CC1)N2 (centres unmarked) [Compound 68]
Given back: 112

###

target-or-system: human TRPA1 (Homo sapiens (Human), UniProt O75762)
experiment-notes: FLIPR assay of inhibitory activity on human TRPA1 (calcium ion flux fluorescence)
Format: cell-based
condition-notes: HEK293 cells stably expressing human TRPA1
pIC50: −log10 of the molar value.
Rule: 1.0 for pIC50 not less than 6, 0.0 for anything less.

CC(C)(C)N1CCN(C(=O)C2Cc3cc(C#N)ccc3N2)CC1 (centres unmarked) [Compound 77]    1.0

Asked: Check if pIC50 >= 6 (inclusive). Item: N#Cc1ccc(NC2(C(=O)N3CCN(c4ccccc4C(F)(F)F)CC3)CCCC2)cc1 [Compound 3]
Given back: 0.0

Asked: Does pIC50 meet or surpass 6 for CC(C)CC1CCN(C(=O)C2(Nc3ccc(C#N)cc3)CCCC2)CC1 [Compound 32] ?
Given back: 1.0

Asked: pIC50 >= 6 for N#Cc1ccc(NC2(C(=O)N3CCN(c4cccc(C(F)(F)F)n4)CC3)CC2)cc1 [Compound 12] ?
Given back: 0.0

Asked: For this compound, is measured pIC50 6 or higher? N#Cc1ccc(NC2(C(=O)N3CCN(c4ncc(C(F)(F)F)cn4)CC3)CCCC2)cc1 [Compound 17]
Given back: 1.0

Asked: Has CC(C)(C)C1CCN(C(=O)C2(Nc3ccc(Cl)cc3)CCCC2)CC1 [Compound 46] a recorded pIC50 greater than or equal to 6?
Given back: 1.0

Asked: Could you tell me if the measured pIC50 of CC(C)(C)C1CCN(C(=O)C2(Nc3ccc(C#N)cc3)CCCC2)CC1 [Compound 31] reaches 6 or more?
Given back: 1.0

###

Listed here are compounds together with their documented pIC50.
target-or-system: human TRPA1 (Homo sapiens (Human))
experiment-notes: FLIPR assay of inhibitory activity on human TRPA1 (calcium ion flux fluorescence)
Format: cell-based
condition-notes: HEK293 cells stably expressing human TRPA1
A value of pIC50 is the negative decimal logarithm of a concentration given in moles per litre.

Below, each entry is followed by its recorded pIC50 result.
CC(C)(C)N1CCN(C(=O)C2(Sc3ccc(C#N)cc3)CCCC2)CC1    6.98
N#Cc1ccc(NC2(C(=O)N3CCN(c4ccc(C(F)(F)F)nn4)CC3)CCCC2)cc1Cl    6.12
N#Cc1ccc(OC(C(=O)N2CCN(c3ccc(C(F)(F)F)nn3)CC2)c2ccccc2)cc1 (stereo not drawn)    6.25
CC(C)(C)C1CCN(C(=O)C2(Nc3ccc(C#N)cc3)CC2)CC1    4.99

Asked: Find the measured pIC50 of N#Cc1ccc2c(c1)CC(C(=O)N1CCN(c3nccc(C(F)(F)F)n3)CC1)N2 (stereo not drawn) and report it.
Given back: 6.41

Asked: Let me know recorded pIC50 for Cn1ccc(N2CCN(C(=O)C3(Nc4ccc(C#N)cc4)CCCC3)CC2)n1 , thanks.
Given back: 5.55
